# Test system: SF-539 CNS
# protocol description: NCI tumour cell line growth inhibition, 48 h
assay readout: GI50

compound=C=C1C(=O)O[C@@H]2C[C@@H]1CC[C@]1(C)O[C@H]1CC[C@@]1(C)O[C@@H]1CC[C@@]2(C)O meas_value="35.1 µM"
compound=Oc1ccc(C(c2ccccc2)(c2ccccc2)c2ccccc2)cc1 meas_value="17.6 µM"
compound="N#CC1=C(N)Oc2cc3c(cc2C1c1cccs1)OCO3 (centres undefined)" meas_value="0.747 µM"
compound=CCC1=C(C)/C(=C/c2[nH]c(C)c(C(=O)CCCCC(=O)OC)c2C)N=C1c1ccc[nH]1 meas_value="13.2 µM"
compound="Cc1ccc(S(=O)ON2CCC(C(=O)O)(c3ccccc3)CC2)cc1 (centres undefined)" meas_value="> 100 µM"
compound=Oc1ccc2ccccc2c1C=NCCCN=Cc1c(O)ccc2ccccc12 meas_value="17.8 µM"
compound=C=C1C(=O)O[C@H]2[C@H]1CC/C(COC(=O)C(=O)c1c[nH]c3ccccc13)=C\CC[C@@]1(C)O[C@@H]21 meas_value="1.75 µM"
compound=CN(C)/[N+]([O-])=N/Oc1cc(Nc2cccc(C(=O)O)c2)c([N+](=O)[O-])cc1[N+](=O)[O-] meas_value="> 100 µM"
compound=O=C(Nc1ccc(-c2nc3cc4ccccc4cc3[nH]2)cc1)c1cccc(Br)c1 meas_value="12.9 µM"
compound=COc1ccc(C(=O)Cn2c(C(=O)c3ccc(Cl)cc3)nc3ccccc32)cc1 meas_value="99.3 µM"
compound=CCc1ccc(-c2nnc(COc3ccc(-c4nc5ccc(C)cc5[nH]4)cc3OC)o2)cc1 meas_value="1.7 µM"
compound=COc1cccc(-c2nn(-c3ccccc3)cc2-c2ccnc(NCCNS(=O)(=O)c3ccc(Cl)cc3)c2)c1 meas_value="7.35 µM"
compound=CN(C)CCNC(=O)c1ccc(Nc2nc3ccccc3c3occc23)cc1 meas_value="1.83 µM"
compound=Cn1c(C(N)=O)cc2c1-c1nc(Nc3ccccc3)ncc1CCC2 meas_value="3.93 µM"
